Molecular target: mTOR (Homo sapiens)
Construct: FLAG; made in house
Sequence (P42345 1362-2549): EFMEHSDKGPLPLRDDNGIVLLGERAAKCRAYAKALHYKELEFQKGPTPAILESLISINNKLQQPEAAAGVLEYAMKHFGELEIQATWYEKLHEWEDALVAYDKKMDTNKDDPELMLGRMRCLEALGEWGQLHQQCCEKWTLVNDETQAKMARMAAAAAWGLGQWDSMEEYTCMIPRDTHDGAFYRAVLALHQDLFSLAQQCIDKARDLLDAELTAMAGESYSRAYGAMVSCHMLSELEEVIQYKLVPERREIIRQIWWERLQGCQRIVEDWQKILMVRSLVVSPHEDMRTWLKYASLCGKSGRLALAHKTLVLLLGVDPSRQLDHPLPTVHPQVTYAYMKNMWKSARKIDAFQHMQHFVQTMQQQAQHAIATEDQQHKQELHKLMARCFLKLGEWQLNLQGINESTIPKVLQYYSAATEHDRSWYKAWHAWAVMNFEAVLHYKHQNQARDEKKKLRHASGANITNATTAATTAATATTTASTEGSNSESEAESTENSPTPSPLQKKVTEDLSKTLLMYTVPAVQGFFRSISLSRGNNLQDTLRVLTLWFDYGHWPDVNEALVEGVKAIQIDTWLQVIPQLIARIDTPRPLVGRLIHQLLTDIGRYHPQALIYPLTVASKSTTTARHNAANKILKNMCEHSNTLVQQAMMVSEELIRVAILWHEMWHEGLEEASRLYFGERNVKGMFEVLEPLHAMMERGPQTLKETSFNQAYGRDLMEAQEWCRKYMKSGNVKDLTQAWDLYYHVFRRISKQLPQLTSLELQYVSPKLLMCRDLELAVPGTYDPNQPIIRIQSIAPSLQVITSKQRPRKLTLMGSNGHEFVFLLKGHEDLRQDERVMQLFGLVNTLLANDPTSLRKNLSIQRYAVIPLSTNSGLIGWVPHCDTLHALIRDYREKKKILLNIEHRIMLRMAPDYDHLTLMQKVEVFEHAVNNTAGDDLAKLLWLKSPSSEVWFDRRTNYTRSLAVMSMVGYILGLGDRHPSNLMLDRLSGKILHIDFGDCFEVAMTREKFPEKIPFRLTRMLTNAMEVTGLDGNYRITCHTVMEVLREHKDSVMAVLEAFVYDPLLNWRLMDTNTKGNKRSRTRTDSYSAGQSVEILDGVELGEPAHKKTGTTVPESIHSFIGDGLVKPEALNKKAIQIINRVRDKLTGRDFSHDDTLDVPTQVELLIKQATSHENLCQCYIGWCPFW
Assay: In Vitro mTOR Kinase Assay (Echo), Test (a)(ii)
Format: biochemical
Settings: table of enzyme assay Test (a)(ii); read-out: Test (a)(ii) IC50
outcome-measure: pIC50
Please report pIC50 as the negative decimal logarithm of the molar concentration, giving only the number.

Here is how some compounds turned out for pIC50.
compound	target-or-system	pIC50
C[C@H]1COCCN1c1cc(C2(S(=O)(=O)C3CC3)CCCC2)nc(-c2ccc(NC(=O)NCCC#N)cc2)n1 [Example 36l]	mTOR (Homo sapiens)	7.37
C[C@H]1COCCN1c1cc(C2(S(=O)(=O)c3nccs3)CCC2)nc(-c2ccc(NC(=O)NCCO)cc2)n1 [Example 98k]	mTOR (Homo sapiens)	8.61
C[C@H]1COCCN1c1cc(C2(S(=O)(=O)C3CC3)CCOCC2)nc(-c2ccc(NC(=O)NC3CC3)cc2)n1 [Example 23e]	mTOR (Homo sapiens)	8.06
CCNC(=O)Nc1ccc(-c2nc(N3CCOC[C@@H]3C)cc(C3(S(=O)(=O)c4ccc(F)c(Cl)c4)CC3)n2)cc1 [Example 95f]	mTOR (Homo sapiens)	7.96

Request: Requested field: pIC50. Item: C[C@H](CO)NC(=S)Nc1ccc(-c2nc(N3CCOC[C@@H]3C)cc(C3(S(C)(=O)=O)CCC3)n2)cc1 [Example 62c]
Result: 7.43

Request: Item: CNC(=O)Nc1ccc(-c2nc(N3CCOC[C@@H]3C)cc(C3(S(=O)(=O)c4nccs4)CC3)n2)cc1 [Example 39a]
Result: 9.30

Request: Item: CCS(=O)(=O)C1(c2cc(N3CCOC[C@@H]3C)nc(-c3ccc(NC(=O)NCCC#N)cc3)n2)CC1 [Example 36u]
Result: 8.04

Request: Item: CS(=O)(=O)C1(c2cc(N3CCOCC3)nc(-c3ccc(NC(=O)NCCC#N)cc3)n2)CC1 [Example 36r]
Result: 8.13

Request: Item: CNC(=O)Nc1ccc(-c2nc(N3CCOC[C@@H]3C)cc(C3(S(=O)(=O)c4ccc(F)cc4)CC3)n2)cn1 [Example 14j]
Result: 7.89

Request: Item: CNC(=S)Nc1ccc(-c2nc(N3CCOC[C@@H]3C)cc(C3(S(C)(=O)=O)CC3)n2)cc1
Result: 8.27

Request: Item: C[C@H]1COCCN1c1cc(C2(S(=O)(=O)c3ccc(F)c(F)c3)CC2)nc(-c2ccc(NC(=O)NCCF)cc2)n1 [Example 64l]
Result: 8.95

Request: Item: C[C@H]1COCCN1c1cc(C2(S(=O)(=O)c3ccccc3)CC2)nc(-c2ccc(NC(=O)Nc3ncco3)cc2)n1 [Example 36dy]
Result: 8.20

Request: Item: CNC(=S)Nc1ccc(-c2nc(N3CCOC[C@@H]3C)cc(C3(S(=O)(=O)c4nc(C)cs4)CC3)n2)cc1 [Example 37p]
Result: 8.27

Request: Item: CNC(=O)Nc1ccc(-c2nc(N3CCOC[C@@H]3C)cc(C3(S(=O)(=O)c4ccc(F)c(Cl)c4)CC3)n2)cc1 [Example 95a]
Result: 7.86
